# Tested on: 786-0 renal
# Measurement protocol: NCI-60 one-dose screen, 48 h (100 = growth as untreated, 0 = no growth, -100 = all killed)
# Conditions used: 10 µM unless noted
The panel holds about 83,000 compounds, 20% with a hit somewhere; the sample as a whole holds those more often.
Each record here notes measured growth.
Measurement kind: growth (%)

COc1ccc(C(=O)/C=C/c2ccc(Cl)cc2)cc1S(=O)(=O)Nc1c(N)nc(SC)[nH]c1=O
31
C=C(C)[C@@H]1CCC[C@]2(C(=O)O)CC[C@]3(C)[C@@H](CC[C@@H]4[C@@]5(C)C/C(=C/c6ccncc6)C(=O)C(C)(C)[C@@H]5CC[C@]43C)[C@@H]12
39.8
CCOC(=O)C#Cc1c(C(=O)OCC)nnn1Cc1ccc(C(F)(F)F)cc1
43.6
Cc1n[nH]c2ccc(Br)cc2c1=O
102
C[C@@H]1O[C@@H](O[C@@H]2C[C@H](c3ccc4c(c3O)C(=O)C3=C(C4=O)[C@@]4(O)C(=O)C[C@](C)(O)C[C@@]4(O)C=C3)O[C@H](C)[C@H]2O)CC[C@@H]1O[C@H]1C[C@@H](O)[C@H](O)[C@@H](C)O1
103
CCN1C(=O)N(CC)C2C1NN=c1s/c(=C\c3ccc(C(F)(F)F)cc3)c(=O)n12 (configuration not stated)
24.9
N#Cc1c(Nc2ccc(N3CCOCC3)cc2)nc(SCC(=O)c2ccc(Br)cc2)nc1-c1ccccc1
101
